- target desc: EPHA5 (human) (UniProt P54756)
- Sequence (P54756 whole entry, looked up): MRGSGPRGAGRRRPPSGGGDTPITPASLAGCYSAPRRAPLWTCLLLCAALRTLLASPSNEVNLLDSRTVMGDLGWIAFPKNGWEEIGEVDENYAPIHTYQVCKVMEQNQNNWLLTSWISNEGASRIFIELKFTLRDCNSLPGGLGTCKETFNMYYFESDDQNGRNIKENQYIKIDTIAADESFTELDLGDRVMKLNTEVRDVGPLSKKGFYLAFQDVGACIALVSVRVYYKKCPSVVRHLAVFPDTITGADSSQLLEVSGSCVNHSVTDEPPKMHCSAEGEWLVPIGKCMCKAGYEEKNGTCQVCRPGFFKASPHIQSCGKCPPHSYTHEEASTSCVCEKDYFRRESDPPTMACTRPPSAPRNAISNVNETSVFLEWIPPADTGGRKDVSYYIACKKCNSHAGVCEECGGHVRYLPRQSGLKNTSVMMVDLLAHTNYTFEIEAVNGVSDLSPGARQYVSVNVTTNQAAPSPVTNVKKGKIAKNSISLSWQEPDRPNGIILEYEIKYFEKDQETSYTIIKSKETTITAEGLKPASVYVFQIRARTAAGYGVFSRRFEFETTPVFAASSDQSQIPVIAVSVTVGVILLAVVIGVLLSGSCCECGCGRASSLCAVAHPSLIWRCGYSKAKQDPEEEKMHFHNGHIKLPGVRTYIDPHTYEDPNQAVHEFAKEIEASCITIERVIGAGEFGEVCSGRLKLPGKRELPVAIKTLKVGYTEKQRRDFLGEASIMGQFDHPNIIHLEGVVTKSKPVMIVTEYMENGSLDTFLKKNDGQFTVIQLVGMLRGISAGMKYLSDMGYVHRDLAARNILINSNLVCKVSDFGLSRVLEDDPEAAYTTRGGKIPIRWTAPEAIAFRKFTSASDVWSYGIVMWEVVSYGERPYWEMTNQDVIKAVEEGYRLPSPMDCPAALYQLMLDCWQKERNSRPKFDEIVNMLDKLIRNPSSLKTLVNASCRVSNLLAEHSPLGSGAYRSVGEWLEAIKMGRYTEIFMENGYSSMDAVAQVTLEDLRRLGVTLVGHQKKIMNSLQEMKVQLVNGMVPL
- test: KINOMEscan competition binding
- protocol conditions: compound 10.0 µM
readout label: kinase still bound, per cent of control

# smiles representation, target desc, readout label, measured
records = [
    ("CCS(=O)(=O)Nc1ccc2c(c1)[C@H](/C(=N/c1ccc(CN3CCCCC3)cc1)c1ccccc1)C(=O)N2", "EPHA5 (human) (UniProt P54756)", "kinase still bound, per cent of control", "0%"),
    ("N#Cc1ccc(-c2cnc3[nH]cc(NC(=O)c4cccnc4)c3c2)cc1", "EPHA5 (human) (UniProt P54756)", "kinase still bound, per cent of control", "no effect (inactive)"),
    ("NC(=O)c1ccc(Nc2cc(-c3ccc(F)cc3)[nH]n2)cc1", "EPHA5 (human) (UniProt P54756)", "kinase still bound, per cent of control", "no effect (inactive)"),
    ("O=C1Nc2ccccc2/C1=C/c1ccc[nH]1", "EPHA5 (human) (UniProt P54756)", "kinase still bound, per cent of control", "no effect (inactive)"),
    ("c1ccc(-c2n[nH]cc2-c2ccnc3ccccc23)nc1", "EPHA5 (human) (UniProt P54756)", "kinase still bound, per cent of control", "no effect (inactive)"),
    ("CC(=O)c1c(-c2ccncc2)[nH]c(-c2ccncc2)c1C", "EPHA5 (human) (UniProt P54756)", "kinase still bound, per cent of control", "no effect (inactive)"),
    ("Cc1ccc(O)cc1Nc1ccnc(Nc2cccc(C(N)=O)c2)n1", "EPHA5 (human) (UniProt P54756)", "kinase still bound, per cent of control", "0%"),
    ("Nc1ncnc2c1c(-c1cccc(O)c1)cn2C1CCNCC1", "EPHA5 (human) (UniProt P54756)", "kinase still bound, per cent of control", "no effect (inactive)"),
    ("NC(=O)c1ccc(-c2cc(C(N)=O)c(N)c(-c3ccc(S(N)(=O)=O)cc3)c2)cc1", "EPHA5 (human) (UniProt P54756)", "kinase still bound, per cent of control", "no effect (inactive)"),
    ("Cc1ccc(NC(=O)c2cccc(N3CCCCC3)c2)cc1-c1ccc(C(=O)NCC2CC2)cc1", "EPHA5 (human) (UniProt P54756)", "kinase still bound, per cent of control", "no effect (inactive)"),
]

###

- target desc: UniProt:P16591
- Sequence (P16591 whole entry, looked up): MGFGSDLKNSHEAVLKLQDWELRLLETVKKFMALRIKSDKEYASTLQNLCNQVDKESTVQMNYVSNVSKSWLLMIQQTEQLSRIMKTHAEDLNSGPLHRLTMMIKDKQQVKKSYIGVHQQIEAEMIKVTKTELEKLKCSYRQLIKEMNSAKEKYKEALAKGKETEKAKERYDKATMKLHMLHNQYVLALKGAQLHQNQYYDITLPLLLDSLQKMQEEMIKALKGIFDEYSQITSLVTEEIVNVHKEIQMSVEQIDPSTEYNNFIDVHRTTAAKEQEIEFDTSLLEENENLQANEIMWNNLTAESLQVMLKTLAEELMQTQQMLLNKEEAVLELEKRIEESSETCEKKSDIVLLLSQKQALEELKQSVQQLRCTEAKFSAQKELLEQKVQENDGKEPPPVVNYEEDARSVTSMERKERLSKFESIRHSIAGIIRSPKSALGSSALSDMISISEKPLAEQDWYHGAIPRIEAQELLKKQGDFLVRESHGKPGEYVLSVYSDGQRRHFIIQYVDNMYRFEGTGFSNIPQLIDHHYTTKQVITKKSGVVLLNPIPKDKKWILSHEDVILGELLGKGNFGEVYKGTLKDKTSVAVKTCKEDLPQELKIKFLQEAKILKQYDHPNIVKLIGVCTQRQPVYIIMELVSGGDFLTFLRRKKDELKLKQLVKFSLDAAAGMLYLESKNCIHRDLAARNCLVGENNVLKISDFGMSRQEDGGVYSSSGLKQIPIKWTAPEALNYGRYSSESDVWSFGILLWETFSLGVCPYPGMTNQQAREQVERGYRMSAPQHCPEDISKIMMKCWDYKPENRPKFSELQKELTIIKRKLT
- test: KINOMEscan competition binding
- protocol conditions: compound 10.0 µM

# smiles representation, kinase still bound, per cent of control
measured = [
    ("Cc1ccc(NC(=O)c2cccc(N3CCCCC3)c2)cc1-c1ccc(C(=O)NCC2CC2)cc1", "no effect (inactive)"),
    ("NC(=O)c1ccc(Nc2cc(-c3ccc(F)cc3)[nH]n2)cc1", "no effect (inactive)"),
    ("O=C(Nc1n[nH]c2nc(-c3cccc(O)c3)ccc12)C1CC1", "no effect (inactive)"),
    ("O=C1Nc2ccccc2/C1=C/c1ccc[nH]1", "no effect (inactive)"),
    ("CCS(=O)(=O)Nc1ccc2c(c1)[C@H](/C(=N/c1ccc(CN3CCCCC3)cc1)c1ccccc1)C(=O)N2", "0%"),
    ("N#Cc1ccc(-c2cnc3[nH]cc(NC(=O)c4cccnc4)c3c2)cc1", "no effect (inactive)"),
]

###

- target desc: PIM1 (human) (UniProt P11309)
- Sequence (P11309 whole entry, looked up): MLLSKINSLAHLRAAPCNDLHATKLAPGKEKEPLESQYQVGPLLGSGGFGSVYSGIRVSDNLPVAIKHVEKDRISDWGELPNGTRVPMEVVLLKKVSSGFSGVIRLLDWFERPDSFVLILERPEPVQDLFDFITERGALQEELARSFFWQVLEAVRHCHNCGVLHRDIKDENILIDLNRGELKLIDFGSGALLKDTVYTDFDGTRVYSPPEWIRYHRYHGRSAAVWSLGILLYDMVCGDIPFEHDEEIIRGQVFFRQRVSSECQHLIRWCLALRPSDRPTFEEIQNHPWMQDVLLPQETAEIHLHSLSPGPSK
- test: KINOMEscan competition binding
- protocol conditions: compound 10.0 µM
readout label: kinase still bound, per cent of control

# smiles representation, measured
records = [
    ("CCS(=O)(=O)Nc1ccc2c(c1)[C@H](/C(=N/c1ccc(CN3CCCCC3)cc1)c1ccccc1)C(=O)N2", "12.8%"),
    ("Cc1ccc(C(=O)Nc2cccc(C(C)(C)C)c2)cc1-c1ccc(C(=O)NCC2CC2)cc1", "no effect (inactive)"),
    ("O=C1Nc2ccccc2/C1=C/c1ccc[nH]1", "no effect (inactive)"),
]

###

- target desc: FRK (human)
- test: KINOMEscan competition binding
- protocol conditions: compound 10.0 µM

# smiles representation, kinase still bound, per cent of control
measured = [
    ("O=C1Nc2ccccc2/C1=C/c1ccc[nH]1", "no effect (inactive)"),
    ("N#Cc1ccc(-c2cnc3[nH]cc(NC(=O)c4cccnc4)c3c2)cc1", "no effect (inactive)"),
    ("O=C(Nc1n[nH]c2nc(-c3cccc(O)c3)ccc12)C1CC1", "no effect (inactive)"),
    ("CC(=O)c1c(-c2ccncc2)[nH]c(-c2ccncc2)c1C", "no effect (inactive)"),
    ("Cc1ccc(NC(=O)c2cccc(N3CCCCC3)c2)cc1-c1ccc(C(=O)NCC2CC2)cc1", "no effect (inactive)"),
    ("CCS(=O)(=O)Nc1ccc2c(c1)[C@H](/C(=N/c1ccc(CN3CCCCC3)cc1)c1ccccc1)C(=O)N2", "0.5%"),
    ("NC(=O)c1ccc(Nc2cc(-c3ccc(F)cc3)[nH]n2)cc1", "no effect (inactive)"),
    ("NC(=O)c1ccc(-c2cc(C(N)=O)c(N)c(-c3ccc(S(N)(=O)=O)cc3)c2)cc1", "no effect (inactive)"),
    ("c1ccc(-c2n[nH]cc2-c2ccnc3ccccc23)nc1", "no effect (inactive)"),
    ("NC(=O)Nc1sc(-c2ccc(F)cc2)cc1C(N)=O", "no effect (inactive)"),
]

###

- target desc: STK10 (human) (UniProt O94804)
- Sequence (O94804 whole entry, looked up): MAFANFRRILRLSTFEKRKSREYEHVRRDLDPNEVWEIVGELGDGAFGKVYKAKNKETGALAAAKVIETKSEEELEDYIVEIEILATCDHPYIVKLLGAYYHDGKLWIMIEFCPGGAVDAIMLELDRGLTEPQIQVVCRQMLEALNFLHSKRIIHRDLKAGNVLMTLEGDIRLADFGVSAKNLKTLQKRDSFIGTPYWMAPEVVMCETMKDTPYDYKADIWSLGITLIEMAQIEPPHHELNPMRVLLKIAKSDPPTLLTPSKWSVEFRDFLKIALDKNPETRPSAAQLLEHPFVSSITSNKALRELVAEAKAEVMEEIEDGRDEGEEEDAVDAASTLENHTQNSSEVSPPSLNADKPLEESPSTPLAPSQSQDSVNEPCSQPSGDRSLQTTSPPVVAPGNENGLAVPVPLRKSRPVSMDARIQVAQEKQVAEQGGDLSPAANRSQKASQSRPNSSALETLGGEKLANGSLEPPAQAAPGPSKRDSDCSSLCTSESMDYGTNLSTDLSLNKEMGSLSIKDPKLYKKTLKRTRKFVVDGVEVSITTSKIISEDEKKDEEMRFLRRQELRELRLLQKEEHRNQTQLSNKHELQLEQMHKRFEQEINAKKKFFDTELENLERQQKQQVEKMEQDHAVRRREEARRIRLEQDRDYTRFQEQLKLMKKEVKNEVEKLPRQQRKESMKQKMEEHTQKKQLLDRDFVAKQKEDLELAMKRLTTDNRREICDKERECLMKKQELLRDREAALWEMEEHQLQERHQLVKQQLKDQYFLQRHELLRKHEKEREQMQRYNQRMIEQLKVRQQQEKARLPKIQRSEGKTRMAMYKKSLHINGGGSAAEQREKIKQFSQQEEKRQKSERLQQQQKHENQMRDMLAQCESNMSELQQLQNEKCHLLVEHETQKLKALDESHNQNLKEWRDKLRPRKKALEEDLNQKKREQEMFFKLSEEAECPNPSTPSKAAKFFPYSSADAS
- test: KINOMEscan competition binding
- protocol conditions: compound 10.0 µM

# smiles representation, kinase still bound, per cent of control
rows = [
    ("NC(=O)c1ccc(-c2cc(C(N)=O)c(N)c(-c3ccc(S(N)(=O)=O)cc3)c2)cc1", "no effect (inactive)"),
    ("NC(=O)c1ccc(Nc2cc(-c3ccc(F)cc3)[nH]n2)cc1", "no effect (inactive)"),
    ("CC(=O)c1c(-c2ccncc2)[nH]c(-c2ccncc2)c1C", "no effect (inactive)"),
    ("CCS(=O)(=O)Nc1ccc2c(c1)[C@H](/C(=N/c1ccc(CN3CCCCC3)cc1)c1ccccc1)C(=O)N2", "0%"),
    ("c1ccc(-c2n[nH]cc2-c2ccnc3ccccc23)nc1", "no effect (inactive)"),
    ("Nc1ncnc2c1c(-c1cccc(O)c1)cn2C1CCNCC1", "0%"),
]

###

- target desc: ACVR2B (human)
- test: KINOMEscan competition binding
- protocol conditions: compound 10.0 µM

# smiles representation, kinase still bound, per cent of control
rows = [
    ("Cc1cc(Nc2cc(N3CCN(C)CC3)nc(Sc3ccc(NC(=O)C4CC4)cc3)n2)[nH]n1", "no effect (inactive)"),
    ("N#Cc1ccc(-c2cnc3[nH]cc(NC(=O)c4cccnc4)c3c2)cc1", "no effect (inactive)"),
    ("Cc1ccc(NC(=O)c2cccc(N3CCCCC3)c2)cc1-c1ccc(C(=O)NCC2CC2)cc1", "no effect (inactive)"),
    ("O=C1Nc2ccccc2/C1=C/c1ccc[nH]1", "no effect (inactive)"),
    ("NC(=O)c1ccc(-c2cc(C(N)=O)c(N)c(-c3ccc(S(N)(=O)=O)cc3)c2)cc1", "no effect (inactive)"),
    ("Cc1ccc(O)cc1Nc1ccnc(Nc2cccc(C(N)=O)c2)n1", "0%"),
    ("Cc1ccc(C(=O)Nc2cccc(C(C)(C)C)c2)cc1-c1ccc(C(=O)NCC2CC2)cc1", "no effect (inactive)"),
    ("Nc1ncnc2c1c(-c1cccc(O)c1)cn2C1CCNCC1", "no effect (inactive)"),
    ("CC(=O)c1c(-c2ccncc2)[nH]c(-c2ccncc2)c1C", "no effect (inactive)"),
    ("CCS(=O)(=O)Nc1ccc2c(c1)[C@H](/C(=N/c1ccc(CN3CCCCC3)cc1)c1ccccc1)C(=O)N2", "2.4%"),
]

###

- target desc: PDGFRB (human)
- test: KINOMEscan competition binding
- protocol conditions: compound 10.0 µM

# smiles representation, target desc, kinase still bound, per cent of control
data = [
    ("Nc1ncnc2c1c(-c1cccc(O)c1)cn2C1CCNCC1", "PDGFRB (human)", "0%"),
    ("CCS(=O)(=O)Nc1ccc2c(c1)[C@H](/C(=N/c1ccc(CN3CCCCC3)cc1)c1ccccc1)C(=O)N2", "PDGFRB (human)", "0%"),
    ("Cc1ccc(O)cc1Nc1ccnc(Nc2cccc(C(N)=O)c2)n1", "PDGFRB (human)", "0%"),
    ("O=C1Nc2ccccc2/C1=C/c1ccc[nH]1", "PDGFRB (human)", "0%"),
    ("c1ccc(-c2n[nH]cc2-c2ccnc3ccccc23)nc1", "PDGFRB (human)", "no effect (inactive)"),
    ("CC(=O)c1c(-c2ccncc2)[nH]c(-c2ccncc2)c1C", "PDGFRB (human)", "no effect (inactive)"),
    ("NC(=O)c1ccc(Nc2cc(-c3ccc(F)cc3)[nH]n2)cc1", "PDGFRB (human)", "0%"),
]
